Target Under Test: IRAK4 (Homo sapiens, UniProt Q9NWZ3)
Construct: endogenous in cells
Sequence (Q9NWZ3 whole entry): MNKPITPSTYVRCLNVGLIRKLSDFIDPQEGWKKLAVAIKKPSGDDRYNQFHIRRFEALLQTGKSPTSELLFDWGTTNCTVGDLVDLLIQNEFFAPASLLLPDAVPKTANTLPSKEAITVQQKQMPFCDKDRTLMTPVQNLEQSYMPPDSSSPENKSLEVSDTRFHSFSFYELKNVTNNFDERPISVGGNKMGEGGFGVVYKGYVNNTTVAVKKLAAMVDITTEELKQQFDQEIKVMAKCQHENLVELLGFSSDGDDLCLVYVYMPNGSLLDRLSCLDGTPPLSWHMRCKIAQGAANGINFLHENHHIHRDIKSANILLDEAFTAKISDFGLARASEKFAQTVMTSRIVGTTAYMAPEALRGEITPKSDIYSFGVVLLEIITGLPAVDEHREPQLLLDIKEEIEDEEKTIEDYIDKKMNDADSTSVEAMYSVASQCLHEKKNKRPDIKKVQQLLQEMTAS
Assay Details: ALE THP1 HTRF (Advanced Lipoxidation End Product THP1 Homogeneous Time Resolved Fluorescence)
Assay Context: THP1 cells
Readout: pEC50
Note on pEC50: it is the negative log10 of concentration, concentration in mol/L.

Below, 8 compounds whose answers are already recorded.
Compound | Readout | Numeric Value
C[C@@H]1CN(c2ccc3c(c2)C(=O)N(C2CCC(=O)NC2=O)C3=O)C[C@H](C)N1CC1CCC(NC(=O)c2cnc(-n3ncc4cc(C#N)cnc43)cc2NC2CCCC2)CC1 (stereo partly drawn) [P-32] | pEC50 | 6.26
C[C@H](C#N)Nc1cc(-n2ncc3cc(C#N)cnc32)ncc1C(=O)N[C@H]1CC[C@H](CCN2CCN(c3ccc(C4CCC(=O)NC4=O)cc3)C3(CCC3)C2)CC1 (stereo partly drawn) [P-182] | pEC50 | 8.30
N#Cc1cnc2c(cnn2-c2cc(NC3CCCC3)c(C(=O)NC3CCC(CCN4CCN(c5ccc(C6CCC(=O)NC6=O)cc5)CC4)CC3)cn2)c1 (stereo not drawn) [P-35] | pEC50 | 7.39
C[C@@H]1CN(c2ccc(C3CCC(=O)NC3=O)cc2)C[C@@H](C)N1CCC1CCC(NC(=O)c2cnc(-n3ncc4cc(C#N)cnc43)cc2NC2CCCC2)CC1 (stereo partly drawn) [P-68] | pEC50 | 6.87
N#Cc1cnc2c(cnn2-c2cc(NC3CCCC3)c(C(=O)NC3CCC(CC(=O)N4CCN(c5ccc(C6CCC(=O)NC6=O)cc5)CC4)CC3)cn2)c1 (stereo not drawn) [P-23] | pEC50 | 7.70
N#Cc1cnc2c(cnn2-c2cc(NC3CC3)c(C(=O)NC3CCC(CCN4CCN(c5ccc(C6CCC(=O)NC6=O)cc5)CC4)CC3)cn2)c1 (stereo not drawn) [P-51] | pEC50 | 8.05
N#Cc1cnc2c(cnn2-c2cc(NC3CC3)c(C(=O)N[C@H]3CC[C@H](CCN4CCC(c5ccc(C6(F)CCC(=O)NC6=O)cc5)CC4)CC3)cn2)c1 (single isomer, unassigned) [P-126] | pEC50 | 6.53
C[C@H](C#N)Nc1cc(-n2ccc3cnc(N)nc32)ncc1C(=O)N[C@H]1CC[C@H](CCN2CCN(c3ccc(C4CCC(=O)NC4=O)cc3)CC2)CC1 (stereo partly drawn) [P-163] | pEC50 | 7.92

Now turn to the next compound.
Form field pEC50 for item C[C@H](C#N)Nc1cc(-n2ncc3cc(C#N)cnc32)ncc1C(=O)N[C@H]1CC[C@H](CCN2CCN(c3ccc(C4CCC(=O)NC4=O)cn3)[C@H](C)C2)CC1 (stereo partly drawn) [P-152] on IRAK4 (Homo sapiens, UniProt Q9NWZ3): 7.70

Each recorded value in this set is attributed to patent US20240109881A1.
